- ASSAY_TARGET: BTK kinase domain (Homo sapiens)
- Construct: The kinase domains of BTK, LCK and ERK were expressed as recombinant purified proteins; made in house
- ASSAY: In vitro kinase assay (HITHUNTER), BTK
- Format: biochemical
- STATED_CONDITIONS: Table 2
Define the label as y when IC50 is strictly less than 1000 nM and as n in all remaining cases.

Some solved entries appear below for comparison.
CC(=O)Nc1cccc(C(=O)CCN2CCOCC2)c1	n
CS(=O)(=O)c1ccc(C(=O)CCN2CCOCC2)cc1	y
COc1cccc(C(=O)CCN2CCOCC2)c1	y
O=C(CCN1CCOCC1)c1ccc(Cl)cc1	y

Could you now consider this next compound?
Ask | I wonder whether O=C(CCN1CCOCC1)c1ccc(F)cc1 [drawing 122] has IC50 below 1000 nM. Can you tell?
Reply | n

----------
Please provide measured IC50 for the entries that follow.
- ASSAY_TARGET: BTK kinase domain (Homo sapiens, UniProt Q06187)
- Construct: The kinase domains of BTK, LCK and ERK were expressed as recombinant purified proteins; made in house
- Sequence (Q06187 402-655 limits assumed): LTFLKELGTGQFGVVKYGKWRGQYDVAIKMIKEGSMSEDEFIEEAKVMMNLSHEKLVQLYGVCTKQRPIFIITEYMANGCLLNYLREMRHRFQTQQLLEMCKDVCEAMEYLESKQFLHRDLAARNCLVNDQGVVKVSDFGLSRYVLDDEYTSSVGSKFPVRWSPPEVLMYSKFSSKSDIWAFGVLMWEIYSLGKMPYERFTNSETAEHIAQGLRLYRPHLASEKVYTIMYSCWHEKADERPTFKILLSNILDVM
- ASSAY: In vitro kinase assay (HITHUNTER), BTK
- Format: biochemical
- STATED_CONDITIONS: Table 5
- Description: Similarly, commercially available reagents such as HITHUNTER™ were used to evaluate the effect of compounds on the activity of additional kinases. The kinase domains of BTK, LCK and ERK were expressed as recombinant purified proteins were used for these studies.
Give bare numbers, in nM.

O=C(CCN1CCSCC1)c1ccc2ccccc2c1	71
O=C(CCN1CCS(=O)(=O)CC1)c1ccc2ccccc2c1	117
CC(=O)N1CCN(CCC(=O)c2ccc3ccccc3c2)CC1	89
NC(=O)N1CCN(CCC(=O)c2ccc3ccccc3c2)CC1	153
NCC1CCN(CCC(=O)c2ccc3ccccc3c2)CC1	84
COc1cc2c(cc1OC)CN(CCC(=O)c1ccc3ccccc3c1)CC2 [drawing 212]	115

Below are 3 compounds. Give each one its IC50.
1. O=C(CCN1CCC(Cc2ccccc2)CC1)c1ccc2ccccc2c1 [drawing 204]
2. O=C(CCNCC1CCNCC1)c1ccc2ccccc2c1
3. O=C(CCN1CCC[C@@H]1CO)c1ccc2ccccc2c1

Reply |
1. 128
2. 100
3. 123

----------
- ASSAY_TARGET: ITK kinase domain (Homo sapiens, UniProt Q08881)
- Construct: N-terminally His-tagged ITK kinase domain (amino acids 352-617); His (N); made in house
- Sequence (Q08881 352-617): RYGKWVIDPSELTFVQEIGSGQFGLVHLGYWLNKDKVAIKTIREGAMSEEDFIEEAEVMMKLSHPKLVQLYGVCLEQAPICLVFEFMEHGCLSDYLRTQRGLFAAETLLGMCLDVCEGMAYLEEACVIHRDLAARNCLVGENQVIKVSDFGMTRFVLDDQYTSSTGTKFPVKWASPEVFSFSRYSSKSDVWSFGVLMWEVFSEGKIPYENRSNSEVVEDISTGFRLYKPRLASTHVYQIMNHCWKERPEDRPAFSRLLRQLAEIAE
- ASSAY: In vitro kinase assay (HITHUNTER enzyme fragment complementation), ITK
- Assay type: biochemical
- STATED_CONDITIONS: Table 4; read-out: IC50 ITK
- Procedure: Compounds were screened using the HITHUNTER™ enzyme fragment complementation method (Discoverx). Briefly, a recombinantly produced, N-terminally His-tagged ITK kinase domain (amino acids 352-617) was incubated with various concentrations of individual compounds. ATP and substrate were added, and the kinase reaction was allowed to proceed for 2-16 hours. Commercially available detection reagents were added and allowed to react for 2-4 hours. The reaction was evaluated by luminescence. […]
Please provide measured log10 of IC50 for the entries that follow.
log10 IC50, nM

Examples with their reported log10 of IC50 follow.
O=C(CCN1CCOCC1)c1ccc2ccccc2n1	1.68
O=C(CCN1CCOCC1)c1cc2ccccc2s1	1.00
O=C(CCN1CCCC1)c1ccc2ccccc2c1 [drawing 184]	1.87
NC(=O)c1ccc2cc(C(=O)CCN3CCOCC3)ccc2c1 [drawing 198]	0.70
O=C(CCN1CCOCC1)c1cc2ccccc2cn1 [drawing 187]	3.23

Below are 5 molecules. Give each one its log10 of IC50.
1. O=C(CCN1CCOCC1)c1cnc2ccccc2c1
2. O=C(CCN1CCOCC1)c1ccc2ccccc2c1 [drawing 185]
3. O=C(CCN1CCOCC1)c1cc2ccccc2o1
4. CN(CCC(=O)c1ccc2ccccc2c1)Cc1ccc(C(F)(F)F)cc1
5. O=C(CCN1CCOCC1)c1ccc2sccc2c1

Reply |
[2.28, 1.30, 4.75, 1.75, 1.78]

Below are 2 molecules. Give each one its log10 of IC50.
1. O=C(CCN1CCN(Cc2ccccc2)CC1)c1ccc2ccccc2c1
2. O=C(CCN1CCOCC1)c1ccc2cc(O)ccc2c1

Reply |
[1.48, 1.48]
